src = the supplement of paper PMC4466140

- subject of test: AgLsb1
- method description: SPOT peptide array binding signal intensity (averaged, normalized) (arbitrary units (background-subtracted, floor 0; scale differs between SH3 domains)); higher = stronger binding of the SH3 domain to the peptide
value type: SPOT peptide array binding signal intensity
# output: bare number, no unit

What measured SPOT peptide array binding signal intensity goes with VRTRRRPPPPPIPST ? 91.8

I'd like to know its SPOT peptide array binding signal intensity. The binder in question is LTRRFPFLFPFDTRM 1.75

Can you look up the measured SPOT peptide array binding signal intensity of KNRKNLPTIPIRLSG for me? 318

I would be grateful if you could share the reported SPOT peptide array binding signal intensity for RSKRLFPVRPMATAH . 3
